assay: Primary imaging screen for DUSP6 inhibitors that restore phospho-Erk in transfected HeLa cells, chemical complementation (AID 609); settings: HeLa MKP-3 transfected, phospho-Erk imaging KS statistic; measured here: cell density z-score; at 10 µM
Classification field: fulfilled = z-score at or over -0.2; not fulfilled = z-score under -0.2.

Evaluate `O=c1[nH]c(=O)n(Cc2ccccc2)c(O)c1C=NCCN1CCNCC1` : z-score at minimum -0.2?
not fulfilled

Form field: z-score at least -0.2? Entry: OC(Cc1ccccc1)(c1ccccc1)C1CN2CCC1CC2 (stereo not given)
fulfilled

Say whether `C=CCOC(=O)C1=C(C)OC(N)=C(C#N)[C@@]12C(=O)N(CC(N)=O)c1ccccc12` shows z-score of -0.2 or more.
fulfilled

Check this molecule for z-score at or above -0.2: `O=C(c1ccco1)C12CN3CN(CN(C3)C1)C2`
not fulfilled

Quick check: does CN1CC=C2C(C#N)=C(N)C(C#N)(C#N)C(c3ccncc3)C2C1 (stereo not given) have z-score greater than or equal to -0.2?
not fulfilled

Hi team, for COC(=O)C(O)(c1ccc(NC(=O)c2ccco2)c(OC)c1)C(F)(F)F (stereo not given) , is the recorded z-score at or above -0.2?
not fulfilled

Determine whether measured z-score meets or exceeds -0.2 for CCC(COC(=O)c1cc(OC)c(OC)c(OC)c1)(c1ccccc1)N(C)C (stereo not given)
fulfilled

Does the molecule `O=C1NC(=O)C(C/C=C/c2ccccc2)C(=O)N1` have recorded z-score that is -0.2 or more?
fulfilled

hey, is z-score for this one >= -0.2? CCOCCN1CCC(OC(C)=O)C(C)C1 (stereo not given)
fulfilled

Answer whether z-score of `CN1C[C@H](CNC(=O)OCc2ccccc2)C[C@@H]2c3cccc4c3c(cn4C)C[C@H]21` is greater than or equal to -0.2.
not fulfilled

Does the molecule `Nc1c(C(=O)NCc2ccco2)c2nc3ccccc3nc2n1CCN1CCCCC1` have recorded z-score that is -0.2 or more?
not fulfilled

Determine whether measured z-score meets or exceeds -0.2 for CN1[C@@H]2CC[C@H]1CC(OC(=O)C1C=Nc3ccccc31)C2 (stereo not given in full)
not fulfilled

Exam item: decide whether the reported z-score for `Cc1c2ccncc2c(C)c2c1[nH]c1ccccc12` is at least -0.2.
fulfilled

// inclusive: z-score at least -0.2? input: `COc1ccc(C(=O)CN2CCOCC2)cc1F`
not fulfilled

Check this molecule for z-score at or above -0.2: COC1=CC(=O)OC(/C=C/c2ccccc2)C1 (stereo not given)
fulfilled

Does the reported z-score for `O=c1[nH]c(=O)n(Cc2ccco2)c(O)c1C=NCCN1CCOCC1` fall at or above the -0.2 mark?
fulfilled

Hi, just wondering whether `CCCCCCn1c(O)c(C=NC2CCN(Cc3ccccc3)CC2)c(=O)[nH]c1=O` shows z-score of -0.2 or higher.
fulfilled

Can `NCC1(CC(=O)O)CCCCC1` be said to have z-score at or above -0.2?
not fulfilled

Is z-score for `CCOc1ccccc1-n1c(O)c(C=Nc2ccc(N(CC)CC)cc2)c(=O)[nH]c1=O` at or above -0.2?
fulfilled

Form field: z-score at least -0.2? Entry: CC1(C)CC(n2[nH]c(=O)c3c2NC(=O)CSC3c2ccccc2)CCO1 (stereo not given)
fulfilled

Given the entry `COCCOC(=O)c1c(N)n(Cc2ccco2)c2nc3ccccc3nc12` , answer whether its z-score meets or surpasses -0.2.
fulfilled

Does z-score meet or surpass -0.2 for `C[C@H]1CCCC(=O)CCCCCc2cc(O)cc(O)c2C(=O)O1` ?
fulfilled

API: above_or_equal(metric=z-score, cutoff=-0.2) for item C#CCN(C)C(C)Cc1ccccc1 (stereo not given)
not fulfilled

Answer whether z-score of `CCOC(=O)[C@]1(C#N)[C@@H]2C=CC(C(C)=O)=CN2[C@@H](C(N)=O)[C@@H]1c1ccsc1` is greater than or equal to -0.2.
fulfilled

Evaluate `C[C@@]1(CO)[C@H](O)CC[C@@]2(C)[C@H]1CC[C@H]1C[C@@H]3C[C@@]12CC[C@]3(O)CO` : z-score at minimum -0.2?
fulfilled

====

molecular target: Voltage-gated potassium channel subunit beta-2 (Rattus norvegicus) (UniProt P62483); assay: inhibitors of rat Kvbeta2 reductase activity – biochemical, NADPH fluorescence, primary screen (AID 622); settings: recombinant KvBeta, 4-cyanobenzaldehyde reduction, at 10 µM;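 further: slope of raw intensity against log time taken from 70 to 1610 s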
Sequence (P62483 whole entry, looked up): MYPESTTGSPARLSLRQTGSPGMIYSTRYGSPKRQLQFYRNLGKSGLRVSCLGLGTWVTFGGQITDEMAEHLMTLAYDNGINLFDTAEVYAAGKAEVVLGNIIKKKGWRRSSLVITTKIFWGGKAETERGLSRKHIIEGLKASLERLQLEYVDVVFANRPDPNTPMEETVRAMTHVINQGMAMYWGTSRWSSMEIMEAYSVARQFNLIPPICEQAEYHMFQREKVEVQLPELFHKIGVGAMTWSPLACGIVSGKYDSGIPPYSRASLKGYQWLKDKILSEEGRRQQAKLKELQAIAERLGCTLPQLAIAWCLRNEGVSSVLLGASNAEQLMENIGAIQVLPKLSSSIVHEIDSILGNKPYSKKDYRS
Activity calls are given as the source filed them.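 The calls were made as follows: active = fluorescence slope higher than the sample average by over 3 SD (cut at about -0.22 in these data, passing the limit was not always enough); inactive = the rest.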
Answer with one of the outcomes active, inactive

GET /call?item= `Cc1cc(NC(=O)COC(=O)c2c(C)nn(Cc3ccccc3)c2Cl)no1` returns the recorded outcome of this test.
inactive

Could you check what this test reported for COCC(C)OC(=O)c1c(N)n(Cc2ccco2)c2nc3ccccc3nc12 (centres undefined) ?
inactive

So what was the verdict on `CC(=O)CC(C)(C)n1c[n+](C)nn1` in this test?
inactive

Tell me the recorded outcome of this test for `CCCCCCOc1ccc(CN2CCN(C)CC2)cc1` .
inactive

Record request — test call for CC1(C)CC(n2[nH]c(=O)c3c2NC(=O)CSC3c2ccccc2)CCO1 (centres undefined)
inactive

Can you look up the reported call for CCN1c2nc3ccccn3c(=O)c2CC2(C(=O)N(C)C(=O)N(C)C2=O)C1C (centres undefined) for me?
inactive

I'd appreciate the recorded outcome for `CCc1nc(N2CCNCC2)c(C#N)c2c1CSC(C)(C)C2` from this test.
inactive

Please let me know the test result on file for COC(=NC1CCCC1)C(O)c1c[nH]c2ccccc12 (centres undefined) .
inactive

Tell me the assay call for `CCOC(=O)c1cc(C)n(CCc2cnc[nH]2)c1C` please.
inactive

Would you mind telling me which call this test gave `Nc1ncc(P(=S)(N2CCOCC2)N2CCOCC2)s1` ?
inactive

Lab log entry: `COc1ccc(OC)c([C@@H](O)[C@H](C)NC(C)(C)C)c1` — outcome as called in the assay?
inactive

Write down the call the test reported for this compound. Item: `COc1ccc(Cn2c(O)c(C=NCCN3CCOCC3)c(=O)[nH]c2=O)cc1`
inactive

State the result this test recorded for CCOC(C(=O)OCC(O)CN(CC)CC)(c1ccccc1)c1ccccc1 (centres undefined) .
inactive

Record request — test call for `Cn1c(O)c(C=NCCCNC2CCCCC2)c(=O)n(C)c1=O`
inactive

Assay outcome for COc1cc(C2NCc3ccccc3-n3cccc32)ccc1O (centres undefined) : what was it?
inactive

// return assay outcome for CCOc1ccc(C2SCC(=O)Nc3c2c(=O)[nH]n3C2CCCCCC2)cc1 (centres undefined)
inactive

# fetch the recorded call for `CC(=O)[C@H]1CC[C@H]2[C@@H]3CC[C@H]4C[C@H](O)CC[C@]4(C)[C@H]3C(=O)C[C@]12C` here
inactive

Check the results log: what was the call for `CN(C)CCc1nc2ccccc2c(=O)n1-c1ccccc1` ?
inactive

State the result this test recorded for `COc1ccc(CN2CCN(C(=O)Cc3ccccc3)CC2)c(OC)c1` .
inactive

Which outcome was entered for the compound CNCC(O)c1ccc(O)cc1 (centres undefined) in this test?
inactive

Tell me the assay call for `c1ccc2c(c1)[nH]c1cnccc12` please.
active

Write down the call the test reported for this compound. Item: `C=C1CC[C@@]2(O)[C@H]3Cc4ccc(O)c5c4[C@@]2(CCN3CC2CC2)[C@H]1O5`
inactive

Outcome logged for CCCCSP1(=S)NCCCO1 (centres undefined) in this assay:
inactive

Hello, I am checking results. What call was entered for `COc1ccc(CC2C(=O)NC(=O)NC2=O)c(OC)c1` ?
inactive

====

experiment: endothelial E-selectin expression blockers – imaging, HUVEC, immunofluorescence, MLSMR starter and 10KST1 sets, primary screen (AID 487); details: HUVEC TNFalpha-induced E-selectin immunofluorescence imaging, at 2 µM; stronger effect = higher value;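 further: signal is fraction of cell area covered by stained E-selectin grains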
Each entry gets FALSE if its inhibition stays under -10%, and TRUE if its inhibition is -10% or above.

Does the molecule `O=c1c(C=NCCN2CCNCC2)c(O)n(C2CCCCC2)c(=O)n1C1CCCCC1` have recorded inhibition that is -10% or more?
FALSE

Check the entry `COc1ccccc1-n1c(O)c(C=NCCCn2ccnc2)c(=O)[nH]c1=O` : does inhibition equal or exceed -10%?
FALSE

Textbook exercise: given the entry `Cc1cccc(-n2c(O)c(C=NCCCN3CCOCC3)c(=O)[nH]c2=O)c1C` , state whether its inhibition is greater than or equal to -10%.
TRUE

Item CC(=O)OC1(c2ccc(C)cc2)CN2CCC1c1ccccc12 (configuration not stated) with inhibition of -10% or above?
FALSE

Reported inhibition at or above -10%? `O=P(OCC(F)(F)C(F)F)(N1CCCCC1)N1CCCCC1`
FALSE

Identify whether the reported inhibition of the following molecule is -10% or greater: `C=CCn1c(O)c(C(C)=NCc2cccnc2)c(=O)[nH]c1=O`
FALSE

Tell me whether inhibition is at least -10% here: `Nc1ncc(P(=S)(N2CCOCC2)N2CCOCC2)s1`
FALSE

Decide: inhibition of CCN(CC)CCCC(C)N=C(c1ccccc1)c1c(O)n(C)c(=O)n(C)c1=O (configuration not stated) >= -10%?
FALSE

Quick check, inhibition >= -10%? `O=c1[nH]c(=O)n(Cc2ccc(F)cc2)c(O)c1C=NCCCN1CCOCC1`
TRUE

Given `O=c1[nH]c(=O)n(C2CCCCC2)c(O)c1C=NCCCn1ccnc1` , state whether its inhibition is at least -10%.
FALSE

Confirm if inhibition reported for the molecule `CCCCNC(=O)c1c(N)n(CCCOC)c2nc3ccccc3nc12` is -10% or above.
TRUE

Does the molecule `C=CCn1c(O)c(C=NCCN(C)C)c(=O)[nH]c1=O` have recorded inhibition that is -10% or more?
TRUE

hey, is inhibition for this one >= -10%? COC(=NC1CCCC1)C(O)c1c[nH]c2ccccc12 (configuration not stated)
FALSE

Could you verify whether the entry CC1CCC(C(C)C)C(OP(N)(=O)c2ccccc2)C1 (configuration not stated) shows inhibition of no less than -10%?
FALSE

Confirm if inhibition reported for the molecule `Nc1ccnn1C1CCNCC1` is -10% or above.
FALSE

Form field: inhibition at least -10%? Entry: `Cc1ccccc1-n1c(O)c(C=NCCN2CCOCC2)c(=O)[nH]c1=O`
FALSE

Evaluate Clc1ccc(COC(Cn2ccnc2)c2ccc(Cl)cc2Cl)cc1 (configuration not stated) : inhibition at minimum -10%?
FALSE

Exam item: decide whether the reported inhibition for `O=c1[nH]c(=O)n(CCc2ccccc2)c(O)c1C=NCCN1CCNCC1` is at least -10%.
FALSE

Is reported inhibition greater than or equal to -10% here: `C/C(Cl)=C/CC1(CN2CCCC2=O)C(=O)NC(=O)NC1=O`
FALSE

Decide: inhibition of `O=c1[nH]c(=O)n(-c2ccc(F)cc2)c(O)c1C=Nc1ccccc1N1CCCC1` >= -10%?
FALSE

For this molecule, is measured inhibition -10% or higher? `CCCCn1c(O)c(C(C)=NCCc2ccccc2)c(=O)[nH]c1=O`
FALSE

Check this molecule for inhibition at or above -10%: `CN1CCC(N(C)c2ncnc3ccc(Br)cc23)CC1`
TRUE
